experimental.target: UniProt:P38532
Sequence (P38532 whole entry): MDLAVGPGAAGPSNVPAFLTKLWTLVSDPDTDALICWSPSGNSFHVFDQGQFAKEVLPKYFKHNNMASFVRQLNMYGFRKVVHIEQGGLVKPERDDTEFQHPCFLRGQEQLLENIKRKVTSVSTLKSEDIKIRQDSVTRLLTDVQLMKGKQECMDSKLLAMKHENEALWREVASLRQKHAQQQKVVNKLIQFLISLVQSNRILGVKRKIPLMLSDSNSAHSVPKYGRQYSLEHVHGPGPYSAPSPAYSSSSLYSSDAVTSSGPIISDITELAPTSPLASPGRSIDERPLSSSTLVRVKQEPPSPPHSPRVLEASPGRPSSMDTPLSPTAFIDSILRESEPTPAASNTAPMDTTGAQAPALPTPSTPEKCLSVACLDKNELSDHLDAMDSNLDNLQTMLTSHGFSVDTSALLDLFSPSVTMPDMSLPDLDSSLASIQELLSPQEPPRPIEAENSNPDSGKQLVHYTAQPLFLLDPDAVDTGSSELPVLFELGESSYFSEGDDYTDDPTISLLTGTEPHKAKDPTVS
test.summary: inhibition of MG132-induced HSE-luciferase signal, confirmation, cell-based, NIH3T3, luminescence, dose retest (AID 2382);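 also: NIH3T3 fibroblasts with HSF1-driven luciferase reporter stressed by proteasome inhibitor MG132; luminescence from HSF1-driven luciferase expression after 8 hours of MG132 stress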
Type: functional
Activity calls are given as the source filed them. Rule as the data show it: actives have a measured EC50 and inactives only a lower limit.
measured.property: EC50

q: Find EC50 (UniProt:P38532) for the entry "CCn1c(S(=O)(=O)O)nc2ccccc21"
a: > 195 µM (not active)

q: Find EC50 (UniProt:P38532) for the entry "COc1cc(/C=N/NC(=O)c2cncc(Br)c2)cc([N+](=O)[O-])c1O"
a: 0.977 µM (active)

q: Find EC50 (UniProt:P38532) for the entry "CC(C)(C)c1ccc(C(=O)NCCOc2ccccc2F)cc1"
a: < 0.16 µM (active)

q: Find EC50 (UniProt:P38532) for the entry "CS(=O)(=O)N(CC(=O)O)c1ccc(C23CC4CC(CC(C4)C2)C3)cc1"
a: > 195 µM (not active)

q: Find EC50 (UniProt:P38532) for the entry "CC(=O)c1cn(CC(=O)Nc2ccccc2C)c2ccccc12"
a: > 195 µM (not active)

q: Find EC50 (UniProt:P38532) for the entry "N#CCc1ccc(NC(=O)Nc2cccc3ccccc23)cc1"
a: > 195 µM (not active)

q: Find EC50 (UniProt:P38532) for the entry "CCCC(=O)N1CCN(c2ccc(NC(=O)c3cc4ccccc4o3)cc2Cl)CC1"
a: 7.51 µM (active)

q: Find EC50 (UniProt:P38532) for the entry "CCN(CC)C(=O)c1ccc(-c2ccccc2)cc1"
a: > 195 µM (not active)

q: Find EC50 (UniProt:P38532) for the entry "CCc1ccccc1NC(=O)c1ccc(NS(C)(=O)=O)cc1"
a: > 195 µM (not active)

q: Find EC50 (UniProt:P38532) for the entry "CCOC(=O)c1cc(S(=O)(=O)N2CCc3ccccc32)cn1C"
a: > 195 µM (not active)

q: Find EC50 (UniProt:P38532) for the entry "COc1cccc(/C=C/C(=O)NCc2ccc3c(c2)OCO3)c1"
a: > 195 µM (not active)

Value source: ChEMBL document CHEMBL1201862
